assay: AUC (0 to infinity) in C57BL/6 mouse at 10 mg/kg, ip; assay type: ADME, organism-based; set-up: time infinity, route intraperitoneal, dose 10 mg/kg; conditions: in vivo
MEASURED_METRIC: AUC(0-inf) (ng·h/mL)
Answer format: numeric, ng·h/mL implied, no suffix.

Lab note: measured AUC(0-inf) of "CC[C@@H]1NC(=O)[C@H]([C@@H]2O[C@@H](Sc3cccc(OCc4ccccc4)c3)C[C@H]2C)N(C)C(=O)[C@H](C(C)C)N(C)C(=O)[C@H](CC(C)C)N(C)C(=O)[C@H](CC(C)C)N(C)C(=O)[C@@H](C)NC(=O)[C@H](C)NC(=O)[C@H](CC(C)C)N(C)C(=O)[C@H](C(C)C)NC(=O)[C@H](CC(C)C)N(C)C(=O)CN(C)C1=O" was 87400

====

test: Tmax in C57BL/6 mouse at 10 mg/kg, po; assay type: ADME, organism-based; conditions: in vivo
MEASURED_METRIC: Tmax (h)
Answer format: numeric, h implied, no suffix.

Lab note: measured Tmax of "CC[C@@H]1NC(=O)[C@H]([C@@H]2O[C@@H](Sc3cccc(OCc4ccccc4)c3)C[C@H]2C)N(C)C(=O)[C@H](C(C)C)N(C)C(=O)[C@H](CC(C)C)N(C)C(=O)[C@H](CC(C)C)N(C)C(=O)[C@@H](C)NC(=O)[C@H](C)NC(=O)[C@H](CC(C)C)N(C)C(=O)[C@H](C(C)C)NC(=O)[C@H](CC(C)C)N(C)C(=O)CN(C)C1=O" was 1

====

test: Intrinsic clearance in mouse liver microsomes at 1 uM preincubated for 5 mins followed by NADPH addition and measured upto 60 mins by LC-MS analysis; type: ADME, Microsome; details: read-out: CLH
The entries below come with measured microsomal CLint at 1 µM values attached.
Answer format: numeric, µL/min/mg implied, no suffix.

Worked cases, answers included:
LINE_NOTATION	MEASURED_METRIC	READOUT_NUMBER
CC[C@@H]1NC(=O)[C@H]([C@@H]2O[C@@H](Sc3cccc(OCc4ccc(F)cc4)c3)C[C@H]2C)N(C)C(=O)[C@H](C(C)C)N(C)C(=O)[C@H](CC(C)C)N(C)C(=O)[C@H](CC(C)C)N(C)C(=O)[C@@H](C)NC(=O)[C@H](C)NC(=O)[C@H](CC(C)C)N(C)C(=O)[C@H](C(C)C)NC(=O)[C@H](CC(C)C)N(C)C(=O)CN(C)C1=O	microsomal CLint at 1 µM	0.3
CCCCc1ccc(S[C@H]2C[C@@H](C)[C@H]([C@H]3C(=O)N[C@@H](CC)C(=O)N(C)CC(=O)N(C)[C@@H](CC(C)C)C(=O)N[C@@H](C(C)C)C(=O)N(C)[C@@H](CC(C)C)C(=O)N[C@@H](C)C(=O)N[C@H](C)C(=O)N(C)[C@@H](CC(C)C)C(=O)N(C)[C@@H](CC(C)C)C(=O)N(C)[C@@H](C(C)C)C(=O)N3C)O2)cc1	microsomal CLint at 1 µM	2.5
CC[C@@H]1NC(=O)[C@H]([C@@H]2O[C@@H](Sc3cccc(OCc4ccccc4)c3)C[C@H]2C)N(C)C(=O)[C@H](C(C)C)N(C)C(=O)[C@H](CC(C)C)N(C)C(=O)[C@H](CC(C)C)N(C)C(=O)[C@@H](C)NC(=O)[C@H](C)NC(=O)[C@H](CC(C)C)N(C)C(=O)[C@H](C(C)C)NC(=O)[C@H](CC(C)C)N(C)C(=O)CN(C)C1=O	microsomal CLint at 1 µM	4.1

Lab note: measured microsomal CLint at 1 µM of "CC[C@@H]1NC(=O)[C@H]([C@@H]2O[C@H](Sc3cccc(OCc4ccccc4)c3)C[C@H]2C)N(C)C(=O)[C@H](C(C)C)N(C)C(=O)[C@H](CC(C)C)N(C)C(=O)[C@H](CC(C)C)N(C)C(=O)[C@@H](C)NC(=O)[C@H](C)NC(=O)[C@H](CC(C)C)N(C)C(=O)[C@H](C(C)C)NC(=O)[C@H](CC(C)C)N(C)C(=O)CN(C)C1=O" was 2.1

====

test: Cmax in C57BL/6 mouse at 10 mg/kg, po; assay type: ADME, organism-based; set-up: route oral, dose 10 mg/kg; conditions: in vivo
MEASURED_METRIC: Cmax (ng/mL)
Answer format: numeric, ng/mL implied, no suffix.

Lab note: measured Cmax of "CC[C@@H]1NC(=O)[C@H]([C@@H]2O[C@@H](Sc3cccc(OCc4ccccc4)c3)C[C@H]2C)N(C)C(=O)[C@H](C(C)C)N(C)C(=O)[C@H](CC(C)C)N(C)C(=O)[C@H](CC(C)C)N(C)C(=O)[C@@H](C)NC(=O)[C@H](C)NC(=O)[C@H](CC(C)C)N(C)C(=O)[C@H](C(C)C)NC(=O)[C@H](CC(C)C)N(C)C(=O)CN(C)C1=O" was 2290

====

assay: AUC (0 to infinity) in C57BL/6 mouse at 10 mg/kg, po; assay type: ADME, organism-based; parameters: route oral, time infinity, dose 10 mg/kg; conditions: in vivo
MEASURED_METRIC: AUC(0-inf) (ng·h/mL)
Answer format: numeric, ng·h/mL implied, no suffix.

Lab note: measured AUC(0-inf) of "CC[C@@H]1NC(=O)[C@H]([C@@H]2O[C@@H](Sc3cccc(OCc4ccccc4)c3)C[C@H]2C)N(C)C(=O)[C@H](C(C)C)N(C)C(=O)[C@H](CC(C)C)N(C)C(=O)[C@H](CC(C)C)N(C)C(=O)[C@@H](C)NC(=O)[C@H](C)NC(=O)[C@H](CC(C)C)N(C)C(=O)[C@H](C(C)C)NC(=O)[C@H](CC(C)C)N(C)C(=O)CN(C)C1=O" was 14500

====

assay: Intrinsic clearance in human liver microsomes at 1 uM preincubated for 5 mins followed by NADPH addition and measured upto 60 mins by LC-MS analysis; type: ADME, Microsome; details: read-out: CLH
MEASURED_METRIC: microsomal CLint at 1 µM

LINE_NOTATION	microsomal CLint at 1 µM
CC[C@@H]1NC(=O)[C@H]([C@@H]2O[C@H](Sc3cccc(OCc4ccccc4)c3)C[C@H]2C)N(C)C(=O)[C@H](C(C)C)N(C)C(=O)[C@H](CC(C)C)N(C)C(=O)[C@H](CC(C)C)N(C)C(=O)[C@@H](C)NC(=O)[C@H](C)NC(=O)[C@H](CC(C)C)N(C)C(=O)[C@H](C(C)C)NC(=O)[C@H](CC(C)C)N(C)C(=O)CN(C)C1=O	7.7 µL/min/mg
CC[C@@H]1NC(=O)[C@H]([C@@H]2O[C@@H](Sc3cc(OC)cc(OC)c3)C[C@H]2C)N(C)C(=O)[C@H](C(C)C)N(C)C(=O)[C@H](CC(C)C)N(C)C(=O)[C@H](CC(C)C)N(C)C(=O)[C@@H](C)NC(=O)[C@H](C)NC(=O)[C@H](CC(C)C)N(C)C(=O)[C@H](C(C)C)NC(=O)[C@H](CC(C)C)N(C)C(=O)CN(C)C1=O	10.2 µL/min/mg

We next turn to a different compound, shown below.
Lab note: measured microsomal CLint at 1 µM of "CC[C@@H]1NC(=O)[C@H]([C@@H]2O[C@@H](Sc3cccc(OCc4ccccc4)c3)C[C@H]2C)N(C)C(=O)[C@H](C(C)C)N(C)C(=O)[C@H](CC(C)C)N(C)C(=O)[C@H](CC(C)C)N(C)C(=O)[C@@H](C)NC(=O)[C@H](C)NC(=O)[C@H](CC(C)C)N(C)C(=O)[C@H](C(C)C)NC(=O)[C@H](CC(C)C)N(C)C(=O)CN(C)C1=O" was 8 µL/min/mg

====

experiment: Half life in C57BL/6 mouse at 10 mg/kg, ip; type: ADME, organism-based; details: in vivo
MEASURED_METRIC: half-life (h)
Answer format: numeric, h implied, no suffix.

Lab note: measured half-life of "CC[C@@H]1NC(=O)[C@H]([C@@H]2O[C@@H](Sc3cccc(OCc4ccccc4)c3)C[C@H]2C)N(C)C(=O)[C@H](C(C)C)N(C)C(=O)[C@H](CC(C)C)N(C)C(=O)[C@H](CC(C)C)N(C)C(=O)[C@@H](C)NC(=O)[C@H](C)NC(=O)[C@H](CC(C)C)N(C)C(=O)[C@H](C(C)C)NC(=O)[C@H](CC(C)C)N(C)C(=O)CN(C)C1=O" was 5.68
